Target: T1, human CD112R on Jurkat CD112R effector cells (human, UniProt Q6DKI7 1-326)
T1 sequence (looked up): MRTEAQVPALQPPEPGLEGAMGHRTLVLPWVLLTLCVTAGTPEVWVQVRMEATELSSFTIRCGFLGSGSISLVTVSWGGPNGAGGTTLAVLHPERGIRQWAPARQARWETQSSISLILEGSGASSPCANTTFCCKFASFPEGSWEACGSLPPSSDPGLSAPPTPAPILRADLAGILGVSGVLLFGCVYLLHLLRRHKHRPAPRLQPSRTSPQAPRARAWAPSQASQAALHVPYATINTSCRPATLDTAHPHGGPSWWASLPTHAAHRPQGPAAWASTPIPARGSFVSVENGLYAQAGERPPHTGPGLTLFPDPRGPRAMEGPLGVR
Experiment: cell-based or functional assay
Listed binders paired with reported EC50, CD112R/CD112 reporter
Use µg/mL as the unit, but write only the number.

Example cases with answers are listed next.
binder="Hu24 (antibody, IgG4, V domains shown, humanized IgG4) VH: EVQLVESGGGLVKPGGSLRLSCAASGFTFSSYHMSWVRQAPGKGLELVSAISRDGDSTYYPDTVKGRFTISRDDAENSLYLQMNSLRAEDTAVYYCSRHEDYFGFAMDSWGQGTLVTVSS VL: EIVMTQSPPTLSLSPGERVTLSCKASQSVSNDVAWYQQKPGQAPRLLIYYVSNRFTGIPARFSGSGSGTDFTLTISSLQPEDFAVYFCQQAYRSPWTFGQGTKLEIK" property="EC50, CD112R/CD112 reporter" measured_number=0.0485
binder="Hu55 (antibody, IgG4, V domains shown, humanized IgG4) VH: EVQLVESGGGLVQPGGSLRLSCAASGFTFSSYHMSWIRQAPGKGLELVAAINSNGINTYYLDTVKGRFTISRDNAKNSLYLQMNSLRAEDTAVYYCARHEDYYGFAMDYWGQGTLVTVSS VL: DIVMTQSPDSLAVSLGERATINCKASQSVTNDVAWYQQKPGQPPKLLIYYVSNHYTGVPDRFSGSGSGTDFTLTISSLQAEDVAVYFCQQAYRSPWTFGQGTKLEIK" property="EC50, CD112R/CD112 reporter" measured_number=0.0223

Now take the following binder into account.
q: Fill in the blank: the reported EC50, CD112R/CD112 reporter of Hu7 (antibody, IgG4, V domains shown, humanized IgG4; also called Hu-07) VH: EVQLVESGGGLVKPGGSLRLSCAASGFTFSSYHMSWVRQAPGKGLELVSAINSNDINTYYLDTVKGRFTISRDIAKNSLYLQMNSLRAEDTAVYYCARHEDYYGFAMDYWGQGTLVTVSS VL: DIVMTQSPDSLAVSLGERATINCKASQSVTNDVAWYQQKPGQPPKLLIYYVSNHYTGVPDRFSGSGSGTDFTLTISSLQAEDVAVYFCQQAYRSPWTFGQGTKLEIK is ____.
a: 0.144
